- Tested on: HeLa Kyoto;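 also: synchronized HeLa Kyoto cells, proteins quantified by TMT10plex mass spectrometry, three biological replicates, mitosis taken 0.5 h after nocodazole release, G1/S directly after double thymidine block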
- test method notes: thermal stability score vs G1/S (z-score of summed log2 fold changes over temperatures); higher = more thermally stable than in G1/S
- condition context: cell cycle stage: mitosis
Class 1: thermal stability score at least -2. Class -1: thermal stability score below -2.

MAPRLCSISVTARRLLGGPGPRAGDVASAAAARFYSKDNEGSWFRSLFVHKVDPRKDAHSTLLSKKETSNLYKIQFHNVKPEYLDAYNSLTEAVLPKLHLDEDYPCSLVGNWNTWYGEQDQAVHLWRFSGGYPALMDCMNKLKNNKEYLEFRRERSQMLLSRRNQLLLEFSFWNEPQPRMGPNIYELRTYKLKPGTMIEWGNNWARAIKYRQENQEAVGGFFSQIGELYVVHHLWAYKDLQSREETRNAAWRKRGWDENVYYTVPLVRHMESRIMIPLKISPLQ [NIPSNAP1] = -1
MAVSVTPIRDTKWLTLEVCREFQRGTCSRPDTECKFAHPSKSCQVENGRVIACFDSLKGRCSRENCKYLHPPPHLKTQLEINGRNNLIQQKNMAMLAQQMQLANAMMPGAPLQPVPMFSVAPSLATNASAAAFNPYLGPVSPSLVPAEILPTAPMLVTGNPGVPVPAAAAAAAQKLMRTDRLEVCREYQRGNCNRGENDCRFAHPADSTMIDTNDNTVTVCMDYIKGRCSREKCKYFHPPAHLQAKIKAAQYQVNQAAAAQAAATAAAMTQSAVKSLKRPLEATFDLGIPQAVLPPLPKRPALEKTNGATAVFNTGIFQYQQALANMQLQQHTAFLPPVPMVHGATPATVSAATTSATSVPFAATATANQIPIISAEHLTSHKYVTQM [MBNL1] = -1
MAPMGIRLSPLGVAVFCLLGLGVLYHLYSGFLAGRFSLFGLGGEPGGGAAGPAAAADGGTVDLREMLAVSVLAAVRGGDEVRRVRESNVLHEKSKGKTREGAEDKMTSGDVLSNRKMFYLLKTAFPSVQINTEEHVDAADQEVILWDHKIPEDILKEVTTPKEVPAESVTVWIDPLDATQEYTEDLRKYVTTMVCVAVNGKPMLGVIHKPFSEYTAWAMVDGGSNVKARSSYNEKTPRIVVSRSHSGMVKQVALQTFGNQTTIIPAGGAGYKVLALLDVPDKSQEKADLYIHVTYIKKWDICAGNAILKALGGHMTTLSGEEISYTGSDGIEGGLLASIRMNHQALVRKLPDLEKTGHK [IMPAD1] = 1

Is thermal stability score for MPYQYPALTPEQKKELSDIAHRIVAPGKGILAADESTGSIAKRLQSIGTENTEENRRFYRQLLLTADDRVNPCIGGVILFHETLYQKADDGRPFPQVIKSKGGVVGIKVDKGVVPLAGTNGETTTQGLDGLSERCAQYKKDGADFAKWRCVLKIGEHTPSALAIMENANVLARYASICQQNGIVPIVEPEILPDGDHDLKRCQYVTEKVLAAVYKALSDHHIYLEGTLLKPNMVTPGHACTQKFSHEEIAMATVTALRRTVPPAVTGITFLSGGQSEEEASINLNAINKCPLLKPWALTFSYGRALQASALKAWGGKKENLKAAQEEYVKRALANSLACQGKYTPSGQAGAAASESLFVSNHAY [ALDOA] at or above -2? -1

Is thermal stability score for MSMEDYDFLFKIVLIGNAGVGKTCLVRRFTQGLFPPGQGATIGVDFMIKTVEINGEKVKLQIWDTAGQERFRSITQSYYRSANALILTYDITCEESFRCLPEWLREIEQYASNKVITVLVGNKIDLAERREVSQQRAEEFSEAQDMYYLETSAKESDNVEKLFLDLACRLISEARQNTLVNNVSSPLPGEGKSISYLTCCNFN [RAB30] at or above -2? 1
